So I've got a bunch of compounds here, and I need their AC50 values.
- measuredTarget: human PAH with the R408W mutation (Homo sapiens, UniProt P00439, R408W)
- Construct: expressed in transfected cells
- Sequence (P00439 whole entry R408W): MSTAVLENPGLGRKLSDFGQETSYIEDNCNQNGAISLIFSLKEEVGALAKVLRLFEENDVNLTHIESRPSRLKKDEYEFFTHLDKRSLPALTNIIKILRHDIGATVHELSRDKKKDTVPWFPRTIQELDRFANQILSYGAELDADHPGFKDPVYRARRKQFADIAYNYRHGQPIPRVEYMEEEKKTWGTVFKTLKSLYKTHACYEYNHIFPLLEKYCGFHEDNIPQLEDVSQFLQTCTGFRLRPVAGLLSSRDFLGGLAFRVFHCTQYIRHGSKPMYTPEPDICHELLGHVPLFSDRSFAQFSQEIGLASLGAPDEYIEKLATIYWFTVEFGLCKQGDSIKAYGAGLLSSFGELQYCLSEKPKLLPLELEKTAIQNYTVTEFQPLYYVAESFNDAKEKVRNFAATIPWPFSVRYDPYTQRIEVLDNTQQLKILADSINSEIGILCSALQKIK
- test: Cell Based Phenylalanine Flux Assay
- testContext: A375 cells expressing human R408W PAH; 24 hrs compound incubation; 13C-Tyrosine by LC-MS; average where tested multiple times; read-out: AC50

Worked examples, 7 compounds total:
[[record]]
structuresmiles = "Clc1cccn2nc([C@@H]3c4nc[nH]c4CCN3c3nnc(-c4ccccn4)o3)cc12"
measuredtarget = "human PAH with the R408W mutation (Homo sapiens, UniProt P00439, R408W)"
measurename = "AC50"
testresult = "< 0.5 µM"

[[record]]
structuresmiles = "Cc1cccn2nc([C@H]3c4nc[nH]c4CCN3c3nnc(C(F)F)o3)cc12"
measuredtarget = "human PAH with the R408W mutation (Homo sapiens, UniProt P00439, R408W)"
measurename = "AC50"
testresult = "> 5 µM"

[[record]]
structuresmiles = "Cc1cccc2cc([C@H]3c4nc[nH]c4CCN3C(=O)c3nnc(-c4cnn(C)c4)o3)nn12"
measuredtarget = "human PAH with the R408W mutation (Homo sapiens, UniProt P00439, R408W)"
measurename = "AC50"
testresult = "> 5 µM"

[[record]]
structuresmiles = "Cc1cccn2nc([C@H]3c4nc[nH]c4CCN3C(=O)c3nnc(-c4cnn(C)c4C)o3)cc12"
measuredtarget = "human PAH with the R408W mutation (Homo sapiens, UniProt P00439, R408W)"
measurename = "AC50"
testresult = "1 to 5 µM"

[[record]]
structuresmiles = "CC(C)c1nnc(C(=O)N2CCc3[nH]cnc3[C@@H]2c2cc3cccc(C(F)F)n3n2)o1"
measuredtarget = "human PAH with the R408W mutation (Homo sapiens, UniProt P00439, R408W)"
measurename = "AC50"
testresult = "1 to 5 µM"

[[record]]
structuresmiles = "Cc1ccc2cc([C@H]3c4nc[nH]c4CCN3C(=O)c3nnc(C(C)(C)C)o3)nn2c1"
measuredtarget = "human PAH with the R408W mutation (Homo sapiens, UniProt P00439, R408W)"
measurename = "AC50"
testresult = "> 5 µM"

[[record]]
structuresmiles = "O=C(c1nnc(-c2ncccn2)o1)N1CCc2[nH]cnc2[C@@H]1c1cc2c(Cl)cccn2n1"
measuredtarget = "human PAH with the R408W mutation (Homo sapiens, UniProt P00439, R408W)"
measurename = "AC50"
testresult = "1 to 5 µM"


Lab note: next compound to report on.
Which measured AC50 value corresponds to O=C(c1cnn2cc(-c3ccccn3)ccc12)N1CCc2[nH]cnc2[C@@H]1c1cc2ccccn2n1 ? 1 to 5 µM

* * *

- measuredTarget: human PAH with the R408W mutation (Homo sapiens, UniProt P00439, R408W)
- Construct: expressed in transfected cells
- test: Cell Based Phenylalanine Flux Assay
- testContext: A375 cells expressing R408W PAH; 24 hrs with compound, then 20 µM sepiapterin and 800 µM 13C9,15N-Phenylalanine for 4 hours; 13C-Tyrosine by LC-MS; average where tested multiple times; read-out: AC50
So I've got a bunch of compounds here, and I need their AC50 values.

[[record]]
compound = "Cn1cc(-c2nnc(C(=O)N3CCc4[nH]cnc4C3c3cc4cc(C(F)(F)F)ccn4n3)o2)cn1 (centres unmarked)"
testresult = "1 to 5 µM"


// for each compound below, give its AC50
1. FC(F)c1nnc(N2CCc3[nH]cnc3C2c2cc3cccc(Cl)n3n2)o1 (centres unmarked)
2. c1cncc(-c2nnc(N3CCc4[nH]cnc4C3c3cc4ccccn4n3)o2)c1 (centres unmarked)
3. COCc1ccc2c(C(=O)N3CCc4[nH]cnc4C3c3cc4c(C(F)F)cccn4n3)cnn2c1 (centres unmarked)
4. Cn1cncc1-c1nnc(C(=O)N2CCc3[nH]cnc3C2c2cc3cccc(C(F)F)n3n2)o1 (centres unmarked)

1: 1 to 5 µM; 2: 1 to 5 µM; 3: 1 to 5 µM; 4: 1 to 5 µM

// for each compound below, give its AC50
1. O=C(c1cnn2ccccc12)N1CCc2[nH]cnc2C1c1cc2cccc(C(F)(F)F)n2n1 (centres unmarked)
2. Cc1ccn2nc(C3c4nc[nH]c4CCN3C(=O)c3nnc(C(C)(C)F)o3)cc2c1 (centres unmarked)
3. FC(F)(F)c1cccc2cc(C3c4nc[nH]c4CCN3c3nnc(-c4cnccn4)o3)nn12 (centres unmarked)

1 to 5 µM
> 5 µM
1 to 5 µM

// for each compound below, give its AC50
1. Cn1cc(-c2nc(C(F)F)c(C(=O)N3CCc4[nH]cnc4C3c3cc4ccccn4n3)o2)cn1 (centres unmarked)
2. NC(=O)c1ncoc1C(=O)N1CCc2[nH]cnc2C1c1cc2ccccn2n1 (centres unmarked)
3. O=C(c1cnc(-c2ncccn2)o1)N1CCc2[nH]cnc2C1c1cc2c(F)cccn2n1 (centres unmarked)
4. Cn1nc(C(C)(C)C)cc1C(=O)N1CCc2[nH]cnc2C1c1cc2c(F)cccn2n1 (centres unmarked)
5. CC(C)c1cccn2nc(C3c4nc[nH]c4CCN3c3cnccn3)cc12 (centres unmarked)

1. 1 to 5 µM
2. 1 to 5 µM
3. > 5 µM
4. 1 to 5 µM
5. > 5 µM

// for each compound below, give its AC50
1. Cc1nnc(N2CCc3[nH]cnc3C2c2cc3c(C(F)(F)F)cccn3n2)o1 (centres unmarked)
2. CC(C)(C)c1nnc(C(=O)N2CCc3[nH]cnc3C2c2cc3ccc(C(F)(F)F)cn3n2)o1 (centres unmarked)
3. CCn1cnnc1C(=O)N1CCc2[nH]cnc2C1c1cc2ccccn2n1 (centres unmarked)
4. CC(O)c1nc(C(F)F)c(C(=O)N2CCc3[nH]cnc3C2c2cc3c(Cl)cccn3n2)o1 (centres unmarked)
5. Cn1ccc(-c2ncc(C(=O)N3CCc4[nH]cnc4C3c3cc4ccccn4n3)o2)n1 (centres unmarked)
6. Cc1ccc2c(C(=O)N3CCc4[nH]cnc4C3c3cc4cccc(C(F)F)n4n3)cnn2c1 (centres unmarked)

1. 1 to 5 µM
2. 1 to 5 µM
3. 1 to 5 µM
4. 1 to 5 µM
5. > 5 µM
6. 1 to 5 µM

// for each compound below, give its AC50
1. Fc1cccnc1-c1nnc(N2CCc3[nH]cnc3C2c2cc3c(C4CC4)cccn3n2)o1 (centres unmarked)
2. Cn1cnc(-c2nnc(C(=O)N3CCc4[nH]cnc4[C@H]3c3cc4cccc(C(F)F)n4n3)o2)c1 (single isomer, unassigned)
3. COCc1ccc2c(C(=O)N3CCc4[nH]cnc4C3c3cc4c(OC)cccn4n3)cnn2c1 (centres unmarked)
4. Cc1cccc2cc(C3c4nc[nH]c4CCN3c3ncccn3)nn12 (centres unmarked)
5. Nc1ccc(N2CCc3[nH]cnc3C2c2cc3c(C(F)F)cccn3n2)nc1 (centres unmarked)

1: 1 to 5 µM; 2: 1 to 5 µM; 3: 1 to 5 µM; 4: 1 to 5 µM; 5: 1 to 5 µM

// for each compound below, give its AC50
1. Fc1cccn2nc(C3c4nc[nH]c4CCN3c3nc4ccccc4o3)cc12 (centres unmarked)
2. Cc1cccn2nc(C3c4nc[nH]c4CCN3C(=O)c3cnc(-c4ncccn4)o3)cc12 (centres unmarked)
3. Cn1nc(C(F)F)cc1C(=O)N1CCc2[nH]cnc2C1c1cc2ccccn2n1 (centres unmarked)
4. O=C(c1nnc(NC2CC2)o1)N1CCc2[nH]cnc2C1c1cc2ccccn2n1 (centres unmarked)
5. Fc1ncccc1-c1nnc(N2CCc3[nH]cnc3C2c2cc3c(C(F)F)cccn3n2)o1 (centres unmarked)

1: 1 to 5 µM; 2: 1 to 5 µM; 3: 1 to 5 µM; 4: 1 to 5 µM; 5: 1 to 5 µM

// for each compound below, give its AC50
1. Cn1ncc(C(=O)N2CCc3[nH]cnc3[C@H]2c2cc3ccccn3n2)c1C(F)F (single isomer, unassigned)
2. Cc1cccc2cc(C3c4nc[nH]c4CCN3C(=O)c3nnc(-c4cncn4C)o3)nn12 (centres unmarked)
3. Fc1ncccc1-c1nnc(N2CCc3[nH]cnc3C2c2cc3ccccn3n2)o1 (centres unmarked)
4. Cc1nnc(C(=O)N2CCc3[nH]cnc3[C@H]2c2cc3cccc(C(F)F)n3n2)o1 (single isomer, unassigned)
5. COc1cccn2nc(C3c4nc[nH]c4CCN3C(=O)c3oc(C(C)(C)O)nc3C(F)F)cc12 (centres unmarked)
6. Clc1cccc2cc(C3c4nc[nH]c4CCN3c3nnc(-c4cnccn4)o3)nn12 (centres unmarked)

1 to 5 µM
1 to 5 µM
> 5 µM
1 to 5 µM
> 5 µM
1 to 5 µM

Which measured AC50 value corresponds to O=C(c1ccnn1-c1ccccn1)N1CCc2[nH]cnc2C1c1cc2ccccn2n1 (centres unmarked) ? 1 to 5 µM

* * *

- measuredTarget: human PAH with the R408W mutation (Homo sapiens, UniProt P00439, R408W)
- Construct: expressed in transfected cells
- test: Cell Based Phenylalanine Flux Assay;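 note: after compound treatment, cells received sepiapterin plus isotope-labelled Phenylalanine for 4 hours, then labelled Tyrosine in the medium was quantified, 10-point 2-fold dilution series run in duplicate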
- testContext: A375 cells expressing human R408W PAH; 24 hrs compound incubation; 13C-Tyrosine by LC-MS; average where tested multiple times; read-out: AC50
measureName: AC50

[[record]]
molecule = "O=C(c1ccnn1C(F)F)N1CCc2[nH]cnc2[C@H]1c1cc2c(Cl)cccn2n1 [Example 782]"
measuredtarget = "human PAH with the R408W mutation (Homo sapiens, UniProt P00439, R408W)"
measurename = "AC50"
testresult = "< 0.5 µM"

[[record]]
molecule = "Cn1cc(-c2nnc(C(=O)N3CCc4[nH]cnc4[C@H]3c3cc4ccccn4n3)o2)c(C(F)(F)F)n1 [Example 678]"
measuredtarget = "human PAH with the R408W mutation (Homo sapiens, UniProt P00439, R408W)"
measurename = "AC50"
testresult = "1 to 5 µM"

[[record]]
molecule = "O=C(c1oc(C2(O)CC2)nc1C(F)F)N1CCc2[nH]cnc2[C@@H]1c1cc2c(F)cccn2n1 [Example 1235]"
measuredtarget = "human PAH with the R408W mutation (Homo sapiens, UniProt P00439, R408W)"
measurename = "AC50"
testresult = "1 to 5 µM"

[[record]]
molecule = "Cc1nc(C(C)(C)O)oc1C(=O)N1CCc2[nH]cnc2[C@@H]1c1cc2c(Cl)cccn2n1 [Example 725]"
measuredtarget = "human PAH with the R408W mutation (Homo sapiens, UniProt P00439, R408W)"
measurename = "AC50"
testresult = "> 5 µM"

[[record]]
molecule = "Cc1cccn2nc([C@H]3c4nc[nH]c4CCN3C(=O)c3nnc(-c4cnccn4)o3)cc12 [Example 956]"
measuredtarget = "human PAH with the R408W mutation (Homo sapiens, UniProt P00439, R408W)"
measurename = "AC50"
testresult = "> 5 µM"

[[record]]
molecule = "O=C(c1nnc(-c2cnccn2)o1)N1CCc2[nH]cnc2[C@@H]1c1cc2ccccn2n1 [Example 1363]"
measuredtarget = "human PAH with the R408W mutation (Homo sapiens, UniProt P00439, R408W)"
measurename = "AC50"
testresult = "> 5 µM"

[[record]]
molecule = "O=C(c1ocnc1C(F)F)N1CCc2[nH]cnc2[C@H]1c1cc2ccc(F)cn2n1 [Example 1068]"
measuredtarget = "human PAH with the R408W mutation (Homo sapiens, UniProt P00439, R408W)"
measurename = "AC50"
testresult = "< 0.5 µM"

[[record]]
molecule = "CN(C)c1ccc2c(C(=O)N3CCc4[nH]cnc4[C@@H]3c3cc4c(C(F)F)cccn4n3)cnn2c1 [Example 1771]"
measuredtarget = "human PAH with the R408W mutation (Homo sapiens, UniProt P00439, R408W)"
measurename = "AC50"
testresult = "> 5 µM"


// for each molecule below, give its AC50
1. O=C(c1nnc(-c2ccn(C(F)F)n2)o1)N1CCc2[nH]cnc2[C@H]1c1cc2cccc(C(F)(F)F)n2n1 [Example 1036]
2. Cn1cnc(-c2nnc(C(=O)N3CCc4[nH]cnc4[C@@H]3c3cc4cccc(C(F)(F)F)n4n3)o2)c1 [Example 1033]
3. C[C@@H](O)c1nc(C(F)F)c(C(=O)N2CCc3[nH]cnc3[C@H]2c2cc3ccccn3n2)o1 [Example 690]
4. CC(C)(F)c1nnc(C(=O)N2CCc3[nH]cnc3[C@@H]2c2cc3cccc(Cl)n3n2)o1 [Example 968]
5. Cn1ccc(-c2ccc3c(C(=O)N4CCc5[nH]cnc5[C@H]4c4cc5cccc(C(F)(F)F)n5n4)cnn3c2)n1 [Example 1632]

1. 0.5 to 1 µM
2. 1 to 5 µM
3. < 0.5 µM
4. 1 to 5 µM
5. 0.5 to 1 µM

// for each molecule below, give its AC50
1. Cc1c([C@@H]2c3nc[nH]c3CCN2C(=O)c2ocnc2C(F)F)nn2ccccc12 [Example 784]
2. CC(C)c1nnc(C(=O)N2CCc3[nH]cnc3[C@H]2c2cc3cccc(C(F)F)n3n2)o1 [Example 1492]

1: < 0.5 µM; 2: 0.5 to 1 µM
